These entries and their values trace back to ChEMBL document CHEMBL1154611.

biological target: Motilin receptor (Oryctolagus cuniculus) (UniProt A5A4K8); assay: Agonist activity at motilin receptor in rabbit smooth muscle assessed as tachyphylaxis at EC90 concentration after 4th dose; format: functional
Sequence (A5A4K8 as listed by the source): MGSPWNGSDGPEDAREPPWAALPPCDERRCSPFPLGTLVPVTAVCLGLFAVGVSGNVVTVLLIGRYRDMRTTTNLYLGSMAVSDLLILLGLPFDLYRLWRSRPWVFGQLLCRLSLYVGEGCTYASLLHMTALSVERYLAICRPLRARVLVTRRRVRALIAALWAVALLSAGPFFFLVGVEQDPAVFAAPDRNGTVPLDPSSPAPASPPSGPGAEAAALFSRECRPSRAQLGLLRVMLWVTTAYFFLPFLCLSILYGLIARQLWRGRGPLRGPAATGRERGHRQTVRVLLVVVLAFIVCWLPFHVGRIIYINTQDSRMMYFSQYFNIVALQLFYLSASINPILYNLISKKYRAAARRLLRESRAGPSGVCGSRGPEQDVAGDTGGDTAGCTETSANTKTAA
Reported Activity is given for each of the following molecules.
Reported endpoint: Activity (%)

* CC[C@H]1OC(=O)[C@H](C)[C@@H](O[C@H]2C[C@@](C)(OC)[C@@H](O)[C@H](C)O2)[C@H](C)[C@@H](O[C@@H]2O[C@H](C)C[C@H](N(C)C(C)C)[C@H]2O)[C@](C)(O)C[C@@H](C)[C@H](OCC(=O)NC)[C@H](C)[C@@H](O)[C@]1(C)O | 89
* CC[C@H]1OC(=O)[C@H](C)[C@@H](O[C@H]2C[C@@](C)(OC)[C@@H](O)[C@H](C)O2)[C@H](C)[C@@H](O[C@@H]2O[C@H](C)C[C@H](N(C)C(C)C)[C@H]2O)[C@](C)(O)C[C@@H](C)[C@H](OCC(N)=O)[C@H](C)[C@@H](O)[C@]1(C)O | 92
* CC[C@H]1OC(=O)[C@H](C)[C@@H](O[C@H]2C[C@@](C)(OC)[C@@H](O)[C@H](C)O2)[C@H](C)[C@@H](O[C@@H]2O[C@H](C)C[C@H](N(C)C(C)C)[C@H]2O)[C@](C)(O)C[C@@H](C)[C@H](OCCCC(=O)NC)[C@H](C)[C@@H](O)[C@]1(C)O | 79
* CC[C@H]1OC(=O)[C@H](C)[C@@H](O[C@H]2C[C@@](C)(OC)[C@@H](O)[C@H](C)O2)[C@H](C)[C@@H](O[C@@H]2O[C@H](C)C[C@H](N(C)C(C)C)[C@H]2O)[C@](C)(O)C[C@@H](C)[C@H](OCC(=O)NC2CC2)[C@H](C)[C@@H](O)[C@]1(C)O | 82

====

molecular target: hERG (KCNH2) (Homo sapiens); test: Inhibition of human ERG expressed in HEK cells at 30 uM; format: cell-based, HEK293; conditions: HEK cells expressing human ERG
Sequence (Q12809 whole entry): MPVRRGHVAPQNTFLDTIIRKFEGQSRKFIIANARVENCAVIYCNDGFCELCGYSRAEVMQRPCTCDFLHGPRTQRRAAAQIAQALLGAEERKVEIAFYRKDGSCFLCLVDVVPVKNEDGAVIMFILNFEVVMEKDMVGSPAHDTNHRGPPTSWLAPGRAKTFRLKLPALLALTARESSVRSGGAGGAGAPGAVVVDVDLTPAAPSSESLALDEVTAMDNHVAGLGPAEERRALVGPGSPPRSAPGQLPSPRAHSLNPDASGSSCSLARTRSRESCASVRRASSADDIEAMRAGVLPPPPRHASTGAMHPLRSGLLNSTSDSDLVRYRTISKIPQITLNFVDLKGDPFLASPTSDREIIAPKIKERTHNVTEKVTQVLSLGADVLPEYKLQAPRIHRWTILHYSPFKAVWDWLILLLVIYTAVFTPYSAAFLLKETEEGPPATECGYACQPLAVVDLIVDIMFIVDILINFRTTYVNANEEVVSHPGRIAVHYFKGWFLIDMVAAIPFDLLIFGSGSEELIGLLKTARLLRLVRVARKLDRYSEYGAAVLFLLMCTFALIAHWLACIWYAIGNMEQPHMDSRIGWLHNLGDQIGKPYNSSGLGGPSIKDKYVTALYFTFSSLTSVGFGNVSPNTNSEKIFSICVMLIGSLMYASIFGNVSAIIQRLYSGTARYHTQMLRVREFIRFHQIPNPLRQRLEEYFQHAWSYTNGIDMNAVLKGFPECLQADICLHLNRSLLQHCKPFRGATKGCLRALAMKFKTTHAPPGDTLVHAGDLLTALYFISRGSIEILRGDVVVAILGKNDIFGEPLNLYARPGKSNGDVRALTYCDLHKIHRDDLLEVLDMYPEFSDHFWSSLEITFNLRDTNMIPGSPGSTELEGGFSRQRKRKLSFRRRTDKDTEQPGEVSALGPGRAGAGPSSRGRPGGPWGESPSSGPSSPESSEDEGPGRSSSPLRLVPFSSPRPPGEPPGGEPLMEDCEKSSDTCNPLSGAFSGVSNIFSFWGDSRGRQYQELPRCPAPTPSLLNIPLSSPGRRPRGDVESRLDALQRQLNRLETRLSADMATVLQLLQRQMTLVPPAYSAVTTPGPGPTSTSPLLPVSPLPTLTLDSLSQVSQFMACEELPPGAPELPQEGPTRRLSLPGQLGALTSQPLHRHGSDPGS
Reported inhibition at 30 µM is given for each of the following compounds.
Reported endpoint: inhibition at 30 µM (%)

* CC[C@H]1OC(=O)[C@H](C)[C@@H](O[C@H]2C[C@@](C)(OC)[C@@H](O)[C@H](C)O2)[C@H](C)[C@@H](O[C@@H]2O[C@H](C)C[C@H](N(C)C(C)C)[C@H]2O)[C@](C)(O)C[C@@H](C)[C@H](OCC(=O)NCc2ccccc2)[C@H](C)[C@@H](O)[C@]1(C)O | 67
* CC[C@H]1OC(=O)[C@H](C)[C@@H](O[C@H]2C[C@@](C)(OC)[C@@H](O)[C@H](C)O2)[C@H](C)[C@@H](O[C@@H]2O[C@H](C)C[C@H](N(C)C(C)C)[C@H]2O)[C@](C)(O)C[C@@H](C)[C@H](OCC(=O)Nc2ccncn2)[C@H](C)[C@@H](O)[C@]1(C)O | 16
* CC[C@H]1OC(=O)[C@H](C)[C@@H](O[C@H]2C[C@@](C)(OC)[C@@H](O)[C@H](C)O2)[C@H](C)[C@@H](O[C@@H]2O[C@H](C)C[C@H](N(C)C(C)C)[C@H]2O)[C@](C)(O)C[C@@H](C)[C@H](OCC(=O)NC(C)C)[C@H](C)[C@@H](O)[C@]1(C)O | 26
